target: Recombinant human HSD17B13 enzyme (Homo sapiens (Human), UniProt Q7Z5P4); assay: HSD17b13 NAD(P)H-Glo Biochemical Assay; conditions: 50 uM estradiol, 1 mM NAD+; read-out: HSD17β13 IC50
Sequence (Q7Z5P4 20-300): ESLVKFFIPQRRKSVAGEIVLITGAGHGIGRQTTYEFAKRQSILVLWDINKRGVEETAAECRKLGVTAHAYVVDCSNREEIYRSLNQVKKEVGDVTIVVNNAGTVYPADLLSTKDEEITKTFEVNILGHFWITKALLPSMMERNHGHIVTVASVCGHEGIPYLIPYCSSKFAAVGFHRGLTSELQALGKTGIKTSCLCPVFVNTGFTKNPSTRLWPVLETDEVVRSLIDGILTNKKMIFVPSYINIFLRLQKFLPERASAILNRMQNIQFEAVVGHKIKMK
Each item that follows carries a reported IC50.

A selection of reference data follows.
Determine reported IC50 for CC(=O)N1CCC(Oc2ccc3c(cnn3-c3cc(O)c(F)c(F)c3)c2)CC1 [Compound 24] ; test system: Recombinant human HSD17B13 enzyme (Homo sapiens (Human), UniProt Q7Z5P4).
1 to 30 µM

Determine reported IC50 for CS(=O)(=O)N1CCC(c2ccc3c(cnn3-c3ccc(F)c(O)c3)c2)CC1 [Compound 26.01] ; test system: Recombinant human HSD17B13 enzyme (Homo sapiens (Human), UniProt Q7Z5P4).
1 to 30 µM

Determine reported IC50 for Oc1cnc(-c2ccc3c(cnn3-c3cc(O)c(F)c(F)c3)c2)c(Cl)c1 [Compound 16.01] ; test system: Recombinant human HSD17B13 enzyme (Homo sapiens (Human), UniProt Q7Z5P4).
0.1 to 1 µM

Determine reported IC50 for COC1CN(c2ccc3c(cnn3-c3cc(O)c(F)c(F)c3)c2)C1 [Compound 21.25] ; test system: Recombinant human HSD17B13 enzyme (Homo sapiens (Human), UniProt Q7Z5P4).
1 to 30 µM

Determine reported IC50 for Cc1nn(-c2cc(C(F)(F)F)c(F)c(O)c2F)c2cnc(N3CC(C)(C)OC(C)(C)C3)nc12 [Compound 19.79] ; test system: Recombinant human HSD17B13 enzyme (Homo sapiens (Human), UniProt Q7Z5P4).
< 0.1 µM

Determine reported IC50 for Cc1nn(-c2cc(C(F)(F)F)c(F)c(O)c2F)c2cnc(N3CCN(S(C)(=O)=O)C4(CCCCC4)C3)cc12 [Compound 19.105] ; test system: Recombinant human HSD17B13 enzyme (Homo sapiens (Human), UniProt Q7Z5P4).
< 0.1 µM

---
Determine reported IC50 for CS(=O)(=O)NC1CN(c2ccc3c(cnn3-c3cc(O)c(F)c(F)c3)c2)C1 [Compound 21.07] ; test system: Recombinant human HSD17B13 enzyme (Homo sapiens (Human), UniProt Q7Z5P4).
1 to 30 µM

Determine reported IC50 for Cc1ccc(-n2ncc3cc(N4CCN(S(C)(=O)=O)CC4)ncc32)c(F)c1O [Compound 19.42] ; test system: Recombinant human HSD17B13 enzyme (Homo sapiens (Human), UniProt Q7Z5P4).
1 to 30 µM

Determine reported IC50 for Oc1cccc(-n2ncc3cc(-c4ccc(O)c(Cl)c4)ccc32)c1 [Compound 3.05] ; test system: Recombinant human HSD17B13 enzyme (Homo sapiens (Human), UniProt Q7Z5P4).
1 to 30 µM

Determine reported IC50 for CC1(C)CC=C(c2cc3cnn(-c4cc(O)c(F)c(C(F)(F)F)c4)c3cc2F)CC1 [Compound 18] ; test system: Recombinant human HSD17B13 enzyme (Homo sapiens (Human), UniProt Q7Z5P4).
0.1 to 1 µM

Determine reported IC50 for Cc1ccc(-c2ccc3c(cnn3-c3ccc(F)c(O)c3)c2)cc1 [Compound 4.07] ; test system: Recombinant human HSD17B13 enzyme (Homo sapiens (Human), UniProt Q7Z5P4).
0.1 to 1 µM

Determine reported IC50 for CN(c1ccc2c(cnn2-c2cc(C(F)(F)F)c(F)c(O)c2F)c1)C1CCOCC1 [Compound 19.70] ; test system: Recombinant human HSD17B13 enzyme (Homo sapiens (Human), UniProt Q7Z5P4).
< 0.1 µM

Recorded values, source patent US20240034736A1.
